- Test system: D. rerio embryos
- protocol text: D. rerio embryotoxicity "photoactivation" assay (ring-closed photoform in darkness, then in situ photoconversion)
- Type: in vivo, Danio rerio
- measurement context: after 24 h with ring-closed form in dark, in situ illumination 10 min, λ = 570 nm, approx. 20 mW/cm^2; mortality 24 h after illumination; embryos 5 dpf at readout; value ± STD
Starred links: 1 amine or outer side, 2 acyl side, 3 side chain; linkers in the order of their positions; H or OH if unused. Positions of bridges follow the written chain, without caps; N, C: chain ends. Non-standard residues stand in square brackets, D forms with d. Residues, ends and D or L forms follow the SMILES beside them. *: point of attachment. X2 = Cc1sc(C(=O)[C@@H]2CCCN2[*:2])cc1C1=C(c2cc(C(=O)[*:1])sc2C)CCC1; Orn = NCCC[C@H](N)C(=O)O; NHiPr = CC(C)N*
observed property: LD50 (opened)^24h (µg/mL)
Return type: number; implicit unit µg/mL.

Which LD50 (opened)^24h value belongs to Cc1sc2cc1C1=C(CCC1)c1cc(sc1C)C(=O)[C@@H]1CCCN1C(=O)[C@H](CC(C)C)NC(=O)[C@H](CCCCN)NC(=O)[C@H](C(C)C)NC(=O)[C@H](CCCCN)NC(=O)[C@H](CC(C)C)NC(=O)[C@@H]1CCCN1C(=O)[C@@H](Cc1ccccc1)NC(=O)[C@H](C(C)C)NC(=O)[C@H](CCCCN)NC(=O)[C@H](CC(C)C)NC(=O)[C@H](CCCCN)NC(=O)[C@H](C(C)C)NC2=O [Peptide 16] (VKLKV[dF]PLKVKL; linker N-C via X2) ?
5.2

Which LD50 (opened)^24h value belongs to Cc1sc2cc1C1=C(CCC1)c1cc(sc1C)C(=O)[C@@H]1CCCN1C(=O)[C@H](C(C)C)NC(=O)[C@H](CCCN)NC(=O)[C@H](C(C)C)NC(=O)[C@@H]1CCCN1C(=O)[C@@H](Cc1ccccc1)NC(=O)[C@H](C(C)C)NC(=O)[C@H](CCCN)NC(=O)[C@H](CC(=O)NC(C)C)NC2=O [Peptide 7] (D(NHiPr)[Orn]V[dF]PV[Orn]V; linker N-C via X2) ?
3.0

Which LD50 (opened)^24h value belongs to Cc1sc2cc1C1=C(CCC1)c1cc(sc1C)C(=O)[C@@H]1CCCN1C(=O)[C@H](C(C)C)NC(=O)[C@H](CCCCN)NC(=O)[C@H](C(C)C)NC(=O)[C@H](CC(C)C)NC(=O)[C@H](CCCCN)NC(=O)[C@@H]1CCCN1C(=O)[C@@H](Cc1ccccc1)NC(=O)[C@H](C(C)C)NC(=O)[C@H](CCCCN)NC(=O)[C@H](CC(C)C)NC(=O)[C@H](CCCCN)NC(=O)[C@H](C(C)C)NC2=O [Peptide 18] (VKLKV[dF]PKLVKV; linker N-C via X2) ?
12.3

###

- System: D. rerio embryos
- protocol text: D. rerio embryotoxicity assay, direct application of ring-open photoform
- Format: in vivo, Danio rerio
- measurement context: direct application of 1 or ring-open photoform; zebrafish embryos at 3 dpf; 3 h incubation; final DMSO 0.2%; ambient light; value ± STD
Starred links: 1 amine or outer side, 2 acyl side, 3 side chain; linkers in the order of their positions; H or OH if unused. Positions of bridges follow the written chain, without caps; N, C: chain ends. Non-standard residues stand in square brackets, D forms with d. Residues, ends and D or L forms follow the SMILES beside them. X2 = Cc1sc(C(=O)[C@@H]2CCCN2[*:2])cc1C1=C(c2cc(C(=O)[*:1])sc2C)CCC1; Orn = NCCC[C@H](N)C(=O)O
observed property: LD50 (open)^3h (µg/mL)
Return type: number; implicit unit µg/mL.

Which LD50 (open)^3h value belongs to Cc1sc2cc1C1=C(CCC1)c1cc(sc1C)C(=O)[C@@H]1CCCN1C(=O)[C@H](C(C)C)NC(=O)[C@H](CCCCN)NC(=O)[C@H](C(C)C)NC(=O)[C@H](CC(C)C)NC(=O)[C@H](CCCCN)NC(=O)[C@@H]1CCCN1C(=O)[C@@H](Cc1ccccc1)NC(=O)[C@H](C(C)C)NC(=O)[C@H](CCCCN)NC(=O)[C@H](CC(C)C)NC(=O)[C@H](CCCCN)NC(=O)[C@H](C(C)C)NC2=O [Peptide 18] (VKLKV[dF]PKLVKV; linker N-C via X2) ?
0.9

Which LD50 (open)^3h value belongs to Cc1sc2cc1C1=C(CCC1)c1cc(sc1C)C(=O)[C@@H]1CCCN1C(=O)[C@H](C(C)C)NC(=O)[C@H](CCCCN)NC(=O)[C@H](C(C)C)NC(=O)[C@@H](CCCCN)NC(=O)[C@H](CC(C)C)NC(=O)[C@@H]1CCCN1C(=O)[C@@H](Cc1ccccc1)NC(=O)[C@H](C(C)C)NC(=O)[C@H](CCCCN)NC(=O)[C@H](CC(C)C)NC(=O)[C@H](CCCCN)NC(=O)[C@H](C(C)C)NC2=O [Peptide 17] (VKLKV[dF]PL[dK]VKV; linker N-C via X2) ?
10.5

Which LD50 (open)^3h value belongs to Cc1sc2cc1C1=C(CCC1)c1cc(sc1C)C(=O)[C@@H]1CCCN1C(=O)[C@H](C(C)C)NC(=O)[C@H](CCCN)NC(=O)[C@H](C(C)C)NC(=O)[C@@H]1CCCN1C(=O)[C@@H](Cc1ccccc1)NC(=O)[C@H](C(C)C)NC(=O)[C@H](CCCN)NC(=O)[C@H]([C@@H](C)O)NC2=O [Peptide 6] (T[Orn]V[dF]PV[Orn]V; linker N-C via X2) ?
13.2
